The measured values listed here are drawn from patent US6569878B1.

molecular target: CDK2/cyclin A (Homo sapiens, UniProt P24941); construct: made in house; host or cells: CDK2: insect cells (baculovirus); cyclin A: E. coli, then limited proteolysis; assay: Inhibition of CDK2/cyclin A retinoblastoma kinase activity; format: biochemical; conditions: read-out: Ki CDK 2/A
Where a name gives a salt, the structure may show the parent alone.
quantity: log10 of Ki (log10 of the value in nM)
log10 Ki, nM

Below: 5 compounds and their reported log10 of Ki.
Query: Report log10 of Ki for "NC(=O)c1ccc(Nc2nc(N)c(C(=O)c3c(F)cccc3F)s2)cc1" please.
Result: 1.69

Query: // same read-out, input: "Nc1nc(Nc2ccc(S(N)(=O)=O)cc2)sc1C(=O)c1cc(Cl)sc1Cl"
Result: 0.97

Query: // same read-out, input: Nc1ccc(Cl)c(C(=O)c2sc(Nc3ccc(N4CCNCC4)cc3)nc2N)c1Cl [H(2), Trihydrochloride]
Result: 2.68

Query: // same read-out, input: "CN1CCN(c2ccc(Nc3nc(N)c(C(=O)c4c(F)cccc4F)s3)cc2)CC1=O"
Result: 2.28

Query: // same read-out, input: "Cc1ccsc1C(=O)c1sc(Nc2ccc3nc[nH]c3c2)nc1N"
Result: 2.44

Further cases:
Query: Report log10 of Ki for "Nc1ccc(Cl)c(C(=O)c2sc(Nc3ccc4nc[nH]c4c3)nc2N)c1Cl" please.
Result: 2.25

Query: // same read-out, input: "Nc1nc(Nc2ccc(S(N)(=O)=O)cc2)sc1C(=O)c1sc(Br)cc1Br"
Result: 0.83

Query: // same read-out, input: "Cc1cc([N+](=O)[O-])sc1C(=O)c1sc(Nc2ccc3nc[nH]c3c2)nc1N"
Result: 1.92

Query: // same read-out, input: "CCOC(=O)c1ccc(C(=O)c2sc(Nc3ccc(S(N)(=O)=O)cc3)nc2N)cc1"
Result: 2.12

====

test system: U2-OS; assay: Inhibition of cell growth, MTT assay, U2-OS; type: cell-based; conditions: Homo sapiens, U2OS
Counter-ions that a name gives are not always drawn.
# True = IC50 below 4 µM (exclusive); False = IC50 at/above 4 µM

Here are 6 molecules together with their reported answers.
Query: Is IC50 of Cc1c(C(=O)c2sc(Nc3ccc(S(N)(=O)=O)cc3)nc2N)sc2ccccc12 [C(49)] strictly below 4 µM?
Result: False

Query: // same read-out, input: Nc1nc(Nc2ccc(N3CCNCC3)cc2)sc1C(=O)c1c(Cl)cc(Cl)cc1Cl [J(1)]
Result: True

Query: // same read-out, input: Nc1nc(Nc2ccc(N3CCOCC3)cc2)sc1C(=O)c1c(Cl)cccc1Cl [C(55)]
Result: False

Query: // same read-out, input: NC(=O)c1ccc(Nc2nc(N)c(C(=O)c3c(F)cccc3F)s2)cc1 [C(102)]
Result: True

Query: // same read-out, input: Cc1ccsc1C(=O)c1sc(Nc2ccc(N3CCNCC3)cc2)nc1N [H(1), Trihydrochloride]
Result: True

Query: // same read-out, input: Nc1nc(Nc2ccc(N3CCNCC3)cc2)sc1C(=O)c1c(F)cccc1F [J(2)]
Result: True

Further cases:
Query: Is IC50 of COc1ccc(Nc2nc(N)c(C(=O)c3ccccc3[N+](=O)[O-])s2)cc1 [A(10)] strictly below 4 µM?
Result: True

Query: // same read-out, input: CC(=O)N1CCN(c2ccc(Nc3nc(N)c(C(=O)c4sccc4C)s3)cc2)CC1 [C(98)]
Result: True

Query: // same read-out, input: Nc1nc(Nc2ccc(N3CCOCC3)cc2)sc1C(=O)c1c(Cl)cncc1Cl [C(69)]
Result: False

Query: // same read-out, input: Nc1nc(Nc2ccc(N3CCN(c4ccccn4)CC3)cc2)sc1C(=O)c1c(F)cccc1F [K]
Result: True

Query: // same read-out, input: Nc1ccc(Cl)c(C(=O)c2sc(Nc3ccc(N4CCNCC4)cc3)nc2N)c1Cl [H(2), Trihydrochloride]
Result: False

Query: // same read-out, input: Nc1nc(Nc2ccc(-c3ccncc3)cc2)sc1C(=O)c1c(F)cccc1F [C(122)]
Result: True

Query: // same read-out, input: Cc1ccc(C(=O)c2sc(Nc3ccc(S(N)(=O)=O)cc3)nc2N)c(C)c1 [C(35)]
Result: False

Query: // same read-out, input: CNS(=O)(=O)c1ccc(Nc2nc(N)c(C(=O)c3c(F)cccc3F)s2)cc1 [C(108)]
Result: True

Query: // same read-out, input: C[C@@H]1CN(c2ccc(Nc3nc(N)c(C(=O)c4c(F)cccc4F)s3)cc2)CCN1C [C(124)]
Result: True

====

test system: pRb phosphorylation at serine 780 in HCT-116 cells; assay: pRb immunoblotting (anti-phospho-Rb (ser780) antibody); format: cell-based, human; settings: five micromolar of each compound for 12 hours, western blot, anti-phospho-Rb (Ser 780) antibody
Structures can show the parent of a compound that is named as a salt.
quantity: Inhibits pRb (ser 780) phosphorylation

Below: 5 compounds and their reported Inhibits pRb (ser 780) phosphorylation.
Query: Report Inhibits pRb (ser 780) phosphorylation for Cc1ccsc1C(=O)c1sc(Nc2ccc(N3CCNCC3)cc2)nc1N [H(1), Trihydrochloride] please.
Result: +

Query: // same read-out, input: Nc1nc(Nc2ccc(S(N)(=O)=O)cc2)sc1C(=O)c1c(F)cccc1F [C(85)]
Result: +

Query: // same read-out, input: Cc1cc(C(=O)c2sc(Nc3ccc(S(N)(=O)=O)cc3)nc2N)c(C)s1 [C(50)]
Result: +

Query: // same read-out, input: CN1CCN(c2ccc(Nc3nc(N)c(C(=O)c4c(Cl)cc(C(F)(F)F)cc4Cl)s3)cc2)CC1 [C(81)]
Result: +

Query: // same read-out, input: COc1ccc(Nc2nc(N)c(C(=O)c3ccccc3C#N)s2)cc1 [F]
Result: −

Further cases:
Query: Report Inhibits pRb (ser 780) phosphorylation for Cc1ccsc1C(=O)c1sc(Nc2ccc(N3CCN(C)CC3)cc2)nc1N [C(87)] please.
Result: +

Query: // same read-out, input: Cc1cc([N+](=O)[O-])sc1C(=O)c1sc(Nc2ccc(N3CCN(C)CC3)cc2)nc1N [C(94)]
Result: +

Query: // same read-out, input: Nc1nc(Nc2ccc(N3CCNCC3)cc2)sc1C(=O)c1c(F)cccc1F [J(2)]
Result: +

Query: // same read-out, input: Nc1nc(Nc2ccc(S(N)(=O)=O)cc2)sc1C(=O)c1sc(Br)cc1Br [C(73)]
Result: +

Query: // same read-out, input: Cc1ccsc1C(=O)c1sc(Nc2ccc(S(N)(=O)=O)cc2)nc1N [C(48)]
Result: +

====

tested on: Saos-2; experiment: Inhibition of cell growth, MTT assay, Saos-2; format: cell-based; settings: Homo sapiens; Saos-2, MTT assay
quantity: log10 IC50 (log10 of the value in µM)
log10 IC50, µM

Below: 5 compounds and their reported log10 IC50.
Query: Report log10 IC50 for "Nc1nc(Nc2ccc(N3CCN(CC4CC4)CC3)cc2)sc1C(=O)c1c(F)cccc1F" please.
Result: 0.71

Query: // same read-out, input: "COc1ccc(Nc2nc(N)c(C(=O)c3ccccc3[N+](=O)[O-])s2)cc1"
Result: 0.11

Query: // same read-out, input: "CN(C)CCN(C)c1ccc(Nc2nc(N)c(C(=O)c3c(F)cccc3F)s2)cc1"
Result: -0.05

Query: // same read-out, input: "COc1ccc(Nc2nc(N)c(C(=O)c3ccccc3I)s2)cc1"
Result: 0.32

Query: // same read-out, input: "Nc1nc(Nc2ccc(N3CCOCC3)cc2)sc1C(=O)c1c(Cl)cccc1Cl"
Result: 1.23

Further cases:
Query: Report log10 IC50 for "NC(=O)c1ccc(Nc2nc(N)c(C(=O)c3c(F)cccc3F)s2)cc1" please.
Result: -0.06

Query: // same read-out, input: "CN1CCN(c2ccc(Nc3nc(N)c(C(=O)c4c(Cl)cc(C(F)(F)F)cc4Cl)s3)cc2)CC1"
Result: 1.11

Query: // same read-out, input: "Nc1nc(Nc2ccc(S(N)(=O)=O)cc2)sc1C(=O)c1c(F)cccc1F"
Result: -0.55

Query: // same read-out, input: "CC(=O)N1CCN(c2ccc(Nc3nc(N)c(C(=O)c4sccc4C)s3)cc2)CC1"
Result: 0.43

====

target: CDK2/cyclin A (Homo sapiens); construct: made in house; host or cells: CDK2: insect cells (baculovirus); cyclin A: E. coli, then limited proteolysis; assay: Inhibition of CDK2/cyclin A retinoblastoma kinase activity; format: biochemical; conditions: read-out: Ki CDK 2/A
Consider the following molecules and their measured log10 of Ki readings.
log10 Ki, nM

Below: 5 molecules and their reported log10 of Ki.
Query: Report log10 of Ki for "C[C@@H]1CN(c2ccc(Nc3nc(N)c(C(=O)c4c(F)cccc4F)s3)cc2)CCN1C" please.
Result: 2.79

Query: // same read-out, input: "Cc1ccc(C(=O)c2sc(Nc3ccc(S(N)(=O)=O)cc3)nc2N)c(C)c1"
Result: 1.36

Query: // same read-out, input: "Cc1cc(C(=O)c2sc(Nc3ccc(S(N)(=O)=O)cc3)nc2N)c(C)s1"
Result: 0.75

Query: // same read-out, input: "Nc1nc(Nc2ccc3nc[nH]c3c2)sc1C(=O)c1c(Cl)cncc1Cl"
Result: 2.30

Query: // same read-out, input: "Cc1cncc(C)c1C(=O)c1sc(Nc2ccc(S(N)(=O)=O)cc2)nc1N"
Result: 2.13

Further cases:
Query: Report log10 of Ki for "C[C@@H]1CN(c2ccc(Nc3nc(N)c(C(=O)c4c(F)cccc4F)s3)cc2)C[C@H](C)N1" please.
Result: 2.52

Query: // same read-out, input: "NC(=O)c1ccc(Nc2nc(N)c(C(=O)c3c(F)cccc3C(F)(F)F)s2)cc1"
Result: 2.38

Query: // same read-out, input: "CC(=O)c1sc(Nc2ccccc2)nc1N"
Result: 3.94

Query: // same read-out, input: "C[C@H]1CN(c2ccc(Nc3nc(N)c(C(=O)c4c(F)cccc4F)s3)cc2)CCN1C"
Result: 2.78
